Reference for the values: ChEMBL document CHEMBL1124310

Let's look at some compounds and their measured inhibition.
Molecular target: Polyunsaturated fatty acid 5-lipoxygenase (Homo sapiens)
Experiment: Inhibitory activity against 5-lipoxygenase at 1 uM concentration
Please give a number only; it is taken to be in %.

GET /value?item= `CC(C)(C)c1cc(/C=C/C(=O)c2ccsc2)cc(C(C)(C)C)c1O` &field=inhibition returns 53

`Cc1ccc(/C=C/c2cc(C(C)(C)C)c(O)c(C(C)(C)C)c2)cc1` has a reported inhibition of 6

# inhibition of `CC(C)(C)c1cc(/C=C/c2ccc(Cl)cc2)cc(C(C)(C)C)c1O` = 6

More entries:
Quick note, inhibition for `CC(C)(C)c1cc(/C=C/C(=O)c2cccs2)cc(C(C)(C)C)c1O` landed at 39

inhibition for `CC(C)(C)c1cc(/C=C/c2cccc(C(F)(F)F)c2)cc(C(C)(C)C)c1O` is 19

The recorded inhibition for `CC(C)(C)c1cc(/C=C/c2ccc(F)cc2)cc(C(C)(C)C)c1O` is 23

Memo: `CC(C)(C)c1cc(/C=C2\CCOC2=O)cc(C(C)(C)C)c1O` , reported inhibition: 34

According to the records, this compound `CC(C)(C)c1cc(/C=C/c2ccccc2C(=O)O)cc(C(C)(C)C)c1O` displays inhibition of 10

So, `CC(C)(C)c1cc(C(=O)/C=C/c2ccsc2)cc(C(C)(C)C)c1O` ? Its inhibition was 16

Sample `CC(C)(C)c1cc(/C=C/c2ccc(Cl)c(Cl)c2)cc(C(C)(C)C)c1O` ; inhibition observed: 18

----------
Target: Polyunsaturated fatty acid 5-lipoxygenase (Homo sapiens)
Sequence (whole entry): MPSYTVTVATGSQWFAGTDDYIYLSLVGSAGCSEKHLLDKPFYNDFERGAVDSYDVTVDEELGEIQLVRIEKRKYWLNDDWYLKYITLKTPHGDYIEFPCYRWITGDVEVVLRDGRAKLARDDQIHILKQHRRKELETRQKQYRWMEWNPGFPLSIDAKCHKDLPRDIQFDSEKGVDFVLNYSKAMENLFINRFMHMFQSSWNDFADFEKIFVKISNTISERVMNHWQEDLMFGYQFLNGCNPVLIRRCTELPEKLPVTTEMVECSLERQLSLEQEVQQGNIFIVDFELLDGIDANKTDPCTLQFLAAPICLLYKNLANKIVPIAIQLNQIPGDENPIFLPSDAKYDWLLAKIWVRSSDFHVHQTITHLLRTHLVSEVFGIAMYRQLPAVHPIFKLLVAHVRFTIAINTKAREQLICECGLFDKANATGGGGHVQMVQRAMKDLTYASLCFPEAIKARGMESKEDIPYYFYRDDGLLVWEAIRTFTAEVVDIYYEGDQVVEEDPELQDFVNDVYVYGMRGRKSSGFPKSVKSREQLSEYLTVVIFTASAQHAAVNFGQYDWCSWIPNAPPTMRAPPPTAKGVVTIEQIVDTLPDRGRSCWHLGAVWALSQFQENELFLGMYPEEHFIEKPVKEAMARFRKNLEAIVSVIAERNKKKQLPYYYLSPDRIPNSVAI
Experiment: Inhibitory activity against 5-lipoxygenase at 1 uM concentration
Property Name: inhibition (%)
Report the value in % with no unit label.

Worked cases, inhibition given:
Data point: `CC(C)(C)c1cc(C(=O)/C=C/c2cccs2)cc(C(C)(C)C)c1O` ; inhibition = 10

Field inhibition (entry `CC(C)(C)c1cc(/C=C/c2ccc[n+]([O-])c2)cc(C(C)(C)C)c1O` ) reads 21

The compound listed as `CCOC(=O)/C(=C\c1cc(C(C)(C)C)c(O)c(C(C)(C)C)c1)c1cccnc1` has a reported inhibition of 23

Continuing:
What the record says about `CC(C)(C)c1cc(/C=C/c2ccccc2)cc(C(C)(C)C)c1O` : inhibition is 12
